assay: qHTS assay for identifying genotoxic compounds that show differential cytotoxicity against isogenic chicken DT40 cell lines with known DNA damage response pathways - Rad54/Ku70 mutant cell line (AID 743015); settings: DT40 Rad54/Ku70 mutant viability, CellTiter-Glo, 40 h; series mostly up to 66.8 µM; also: nearly all actives have a fitted effect of over 60% in size
Records with an inconclusive call do not appear. The source made the active and inactive calls. Calls follow the shape of the dose curve; as a rule, active = well fitted cell-killing curve with a large enough effect in the repeat runs; inconclusive = weak or mixed curves; inactive = no such curve, though single readings can be large or run the other way.
Please answer using one outcome listed in active, inactive

Query: How was CCCCn1cc[n+](C)c1C classified in this test?
Result: inactive

Query: How was C1CCC(NC2CCCCC2)CC1 classified in this test?
Result: inactive

Query: How was CCCCn1cc[n+](C)c1 classified in this test?
Result: inactive

Query: How was CCCC[n+]1cccc(C)c1 classified in this test?
Result: inactive
